experiment: Compound solubility in water
result-type: solubility (µg/mL)

# count of solved cases: 4
compound	solubility (µg/mL)
CC(C)CCNC(=O)n1cnc2c(C3CCN(C)CC3)cccc21 [Example 182]	32
CC(C)C#CCNC(=O)n1cnc2c(N3CC4CCC3CN4C)cccc21 (stereo not shown) [Example 304]	27
CC(C)C#CCCNC(=O)n1cnc2c(N3CCN(C)CC3)cccc21 [Example 303]	28
N#Cc1cccc2c1ncn2C(=O)NCCCCc1ccccc1 [Example 130]	1.3

[P] CC(C)CCNC(=O)n1cnc2c(N3CCN(C(C)C)CC3)cccc21 [Example 207]
[Q] CN1CCN(c2cccc3c2ncn3C(=O)NCC#Cc2cccc(F)c2)CC1 [Example 337]
[R] O=C(NCCCCc1ccccc1)n1cnc2c(N3CCOCC3)cccc21 [Example 137]
[S] CCOc1nc2c(F)cccc2n1C(=O)NCCc1ccccc1 [Example 92]
[T] C[C@@H]1CN(c2cccc3c2ncn3C(=O)NCCCC(F)(F)F)C[C@H](C)O1 [Example 226]
In this exercise, place the 5 compounds in ascending sequence of their recorded solubility. Answer format: the labels, in the requested order.
R, S, T, Q, P

* * *

Entries and their pIC50
Molecular target: acid ceramidase (Homo sapiens, UniProt Q13510)
Construct: Cell lysates overexpressing acid ceramidase were used as the enzyme source; expressed in transfected cells
Sequence (Q13510 22-395): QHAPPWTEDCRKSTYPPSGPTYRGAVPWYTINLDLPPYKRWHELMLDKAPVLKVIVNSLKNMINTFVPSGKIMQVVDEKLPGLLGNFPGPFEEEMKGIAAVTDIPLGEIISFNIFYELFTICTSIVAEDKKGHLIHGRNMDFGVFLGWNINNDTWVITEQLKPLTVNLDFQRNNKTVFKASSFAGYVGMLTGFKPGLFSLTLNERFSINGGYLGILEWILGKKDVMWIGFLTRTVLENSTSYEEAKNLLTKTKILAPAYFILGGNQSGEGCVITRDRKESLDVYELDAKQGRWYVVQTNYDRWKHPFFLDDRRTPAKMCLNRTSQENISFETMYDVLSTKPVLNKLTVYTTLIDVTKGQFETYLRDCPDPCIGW
Assay: Acid ceramidase inhibition, biochemical fluorescent assay with cell lysates overexpressing acid ceramidase, substrate Rbm14-12
Settings: substrate Rbm14-12 6.3 μM, pH 4.5, 1 hr preincubation at RT
pIC50: −log10 of the molar value.

The following compounds have reported results that may help.
compound	endpoint-value
O=C(NCCOCc1ccccc1)n1cnc2ccccc21	> 6.70
CCCCNC(=O)n1cnc2c(C3CCN(C)CC3)cc(C(F)(F)F)cc21	> 6.70
COc1cc2c(cc1N1CCOCC1)ncn2C(=O)NCCc1ccccc1 [Example 38b]	> 6.70
CN1CCC(c2cc3ncn(C(=O)NCCc4ccccc4)c3cc2Cl)CC1 [Example 11b]	> 6.70

Below: the item to evaluate.
Field request: pIC50 | item: "CC(C)OCCNC(=O)n1cnc2ccccc21"
6.00 to 6.70

* * *

assay: Compound solubility in water
result-type: solubility (µg/mL)

For orientation, consider the following solved cases.
compound	solubility (µg/mL)
O=C(NCCCCc1ccccc1)n1cnc2ccccc21	1
CC(C)OCCNC(=O)n1cnc2ccccc21	15.4
COc1nc2c(N3CCN(C)CC3)cc(C#N)cc2n1C(=O)NCCC(C)C	12
C#Cc1ccc(CNC(=O)n2cnc3c(N4CCN(C)CC4)cccc32)cc1	4

[A] CC(C)CCNC(=O)n1cnc2c(N3CCN(C)C(=O)C3)cccc21
[B] CN1CCC(c2cc(C(F)(F)F)cc3c2ncn3C(=O)NCCc2ccccc2)CC1
Could you tell me which of these two has the smaller solubility figure? First: A Second: B Field: selected label. Fill in the label of the entry you choose.
A
